This section presents sequences with their documented apparent KD of MS2 coat protein values.
tested on: MS2 coat protein; assay: apparent KD of MS2 coat protein; designed switch direction (-1 OFF switch, 1 ON switch): -1; higher = weaker reporter binding; conditions: input ligand: none
Only the number, expressed in nM, is required.

For orientation, consider the following solved cases.
AACCUGAGGCAUAGCUUUAGGUUUACAUGAGGAUCACCCAUGUAGGAUAUGGUAGGCAUAGCUUACCAGAAGGACAUGAAAAUU [Mat - Exclusion NG 3 - Mod of JL - D30] (Eterna round: R96, puzzle: Exclusion NG 3)	55.6
GUUGUUCGAGGAUAUACAUGAGGAUCACCCAUGUGUGUUGUGGGCGACGUUCGUUUAUGUAGAAGGCGGGCGGC [-27.2, -23.9 kcal, 19% A] (Eterna round: R97, puzzle: Exclusion 3)	50.1
UAAGCUCUGUCAGGAUAUCCCUGUAAACGCAACGGAGAAGGGACAUGAGGAUCACCCAUGUGCGGGCCCAACGCGCUCGGGUCC [Dilacesole] (Eterna round: R96, puzzle: Exclusion NG 1)	35.1
GCUUUUGGGCAAGGAUAUCCUGCGCGGUUCCGGUUCGUGUCUGUCACAUGAGGAUCACCCAUGUGGGAGAAGGUGCCUGUGGUG [Design 72] (Eterna round: R96, puzzle: Exclusion NG 2)	18.4
AGCGUGUGAGAAGGAUAUCGACCCGAGACAGAUUGAGAAGGUCUCACAUGAGGAUCACCCAUGUGGACAGGGCGAGCUCCAGUC [Eternabot solution 11] (Eterna round: R96, puzzle: Exclusion NG 1)	23.4

**Query** # query: apparent KD of MS2 coat protein | item CCUUGUGUUGAGGAUAUGCGCCGGCUCGCUGGCGCAGAAGGCGGCACAUGAGGAUCACCCAUGUCAGUUCGCGG [salish99_ex6_r004_013] (Eterna round: R97, puzzle: Exclusion 6) | system: MS2 coat protein
**Result** 116

**Query** # query: apparent KD of MS2 coat protein | item AUAAUGUGAGGAUAUAUGCAUCACGGUGAUACACCGUGAUGAUAGAAGGUACAUGAGGAUCACCCAUGUAGGGC [Mod of Anonveat 16 - Jieux - Exclusion 4] (Eterna round: R97, puzzle: Exclusion 4) | system: MS2 coat protein
**Result** 37.8

**Query** # query: apparent KD of MS2 coat protein | item GGAAAAGCAGGAUAUACAUGAGGAUCACCCAUGUAGGCUCGCCGAGACGUGGAUGGACGUAGAAGGGCUAUUCC [Eternabot (L1) Solution 65] (Eterna round: R97, puzzle: Exclusion 3) | system: MS2 coat protein
**Result** 28.9

**Query** # query: apparent KD of MS2 coat protein | item GCUUAACAUGAGGAUCACCCAUGUUAGGAUAUGCGAACUCGUAAGAUGCAGGGAGAUUGCAGAAGGAACGUGGC [EX1 C.15] (Eterna round: R97, puzzle: Exclusion 1) | system: MS2 coat protein
**Result** 18.2

**Query** # query: apparent KD of MS2 coat protein | item GCUACUCCAGUCAGGAUAUGGAUCGGCUAAAAGACCCAGAAGGGACUUGAGGAUCACCCAAGUAACGGCUCGGG [Soveare] (Eterna round: R97, puzzle: Brourd's mod of Exclusion 4) | system: MS2 coat protein
**Result** 54.2

**Query** # query: apparent KD of MS2 coat protein | item CCUCCGUAUAAGGAUAUCGUCCAGGAAACUGGACGAGAAGGUAUGACAUGAGGAUCACCCAUGUGAAAGUGAUG [Mod of Brourd 25 - Jieux - Exclusion 6] (Eterna round: R97, puzzle: Exclusion 6) | system: MS2 coat protein
**Result** 71.4

**Query** # query: apparent KD of MS2 coat protein | item CCACUGUCAGGAUAUCGUGCAUAACGUUUACAUUUUAUGUGCGAGAAGGGACAUGAGGAUCACCCAUGUAAACG [Omei Ex4 A28PK2] (Eterna round: R97, puzzle: Exclusion 4) | system: MS2 coat protein
**Result** 808

**Query** # query: apparent KD of MS2 coat protein | item CAUCACUGUGUCAGGAUAUCAUUUGGACGUCUAAGUGAGAAGGGACAUGAGGAUCACCCAUGUGGAGCUGGCCA [Eternabot (L1) Solution 63] (Eterna round: R97, puzzle: Brourd's mod of Exclusion 4) | system: MS2 coat protein
**Result** 41.8

====

tested on: K4 kissing-loop RNA reporter; test: apparent KD of K4 kissing-loop reporter; higher = weaker reporter binding; settings: Eterna round: R107; input ligand: none
quantity_kind: apparent KD of K4 kissing-loop reporter (nM)
Only the number, expressed in nM, is required.

For orientation, consider the following solved cases.
AGGCCCGGCCGAAAGGCCGGGCCAAGAGAUACCAGCAGCGAAAGCUGCCCUUGGCAGCUCACUUAGUGAUGUUAAGAGAUAAAUG [SS Theo A Tesla 1.2]	294
UUAGAGAUCUCAGGAUAUCAGUGAUGUUGGUGUUAAGAUCUGAGAUAGAAUUCUAUCUCAGAUCAAUGAGAAGGGAGAUCUCAUU [AK3 Exc FMN B]	167

**Query** # query: apparent KD of K4 kissing-loop reporter | item AAGUAGCUCUCGGCCGCCACUCCUCAGUGAUGUUGAGAUAUUAAGAGCCAAUUGGCUCAUAUAAAGAGGACCGGGAGAGCUACAA [AK4 SS Tryptophan B] | system: K4 kissing-loop RNA reporter
**Result** 357

**Query** # query: apparent KD of K4 kissing-loop reporter | item GCUCGGGAGUGAUGUUCCAAGUGGUGUUAACGAGGACCGGUACGGCCGCCACUCGAUACGGCCGGGCCGUAGGAUAAACUGGAGC [Same State - Tryptophan A (Freestyle 13)] | system: K4 kissing-loop RNA reporter
**Result** 154

**Query** # query: apparent KD of K4 kissing-loop reporter | item UAGGAGUGAUGUUCCAUAUCUUGAGCCGAAGGAGCGCCUUUAUAGGCAGGUAGGUCGCGGCAGAAGGUACCAGUGAUGUUGGAAA [Same State Arginine A GF6] | system: K4 kissing-loop RNA reporter
**Result** 164

**Query** # query: apparent KD of K4 kissing-loop reporter | item UGCGCUGUGUCCUGAAAUGUCCUCCGGGAUACCAGAGUCUUUUUAUUCCCUUGGCAGCUUGAGUGAUGUUUGAUGCCGUUCUUGU [yvvymullin] | system: K4 kissing-loop RNA reporter;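 also: bound reporter read as fluorescence of individual clusters on recovered sequencing chips by microscopy, with normalized cluster intensities fitted with a binding model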
**Result** 713

====

This section presents sequences with their documented apparent KD of MS2 coat protein values.
test system: MS2 coat protein; experiment: apparent KD of MS2 coat protein; higher = weaker reporter binding; settings: Eterna round: R107; input ligand: arginine 13.2 mM
Only the number, expressed in nM, is required.

For orientation, consider the following solved cases.
GAUAUAUAGGCGGCCGCCACUGAUUUUCAUAUAUAUAUAACAUGAGGAUCACCCAUGUAGAUAUACAGGACCGGGCCUAUAUAUU [aaaB]	15.5
ACACAUGAUAGAAGGAGCGCAAUGAACACACAUGAGGAUCACCCAUGUUUUUUUUGUGUUUUGCAGGUAGGUCGCUAACAUGAGG [Same State Arginine B 4]	11
AGCAACAAGUCGGCCGCCACUCAAUAAACAUGAGGAUCACCCAUGUAAAUAACAUGAUAAUAAUAGAGGACCGGGACAGUUGCAU [JR_SSTryptoB_Sub015]	13
AUCAGUAGAACUGAUACCAGUCAAAGGCUUUGACCUCAUAACAUGAGGAUCACCCAUGUUGACCCUUGGCAGCAGUAGGCAAGGG [Theo B Ex t4]	22.5
GGAUAGGACACGGCCGCCACUAUCUAGGAUACUAGCAACAUUUGGGUACUUGAGGAUCACCCAAGUAGGACCGGGUGUCCUAUCG	82.7

# context switch: different sequence, same apparent KD of MS2 coat protein
**Query** Endpoint output: apparent KD of MS2 coat protein of CCGACAUGAGGAUCACCCAUGUGAACAGAUACCAGUCUGGUAAUAGACCCUUGGCAGCUGAACCAGGAAACUAUGGUGAUCCUGG [Theo A SS t3] . Value?
**Result** 66

====

test system: MS2 coat protein; experiment: apparent KD of MS2 coat protein; designed switch direction (-1 OFF switch, 1 ON switch): -1; higher = weaker reporter binding; conditions: input ligand: FMN 200 uM
quantity_kind: apparent KD of MS2 coat protein (nM)
Only the number, expressed in nM, is required.

For orientation, consider the following solved cases.
UCAAGUCCAUAGGAUAUCGACCAGUCCUCUGGAUGAGAAGGAUGAACUUGAGGAUCACCCAAGUGGCCGAAUAA [Aesin] (Eterna round: R97, puzzle: Exclusion 6)	152
GCAGGUUAAGUCAGGAUAUACCUCUGGAAACAGAGGUAGAAGGGACAUGAGGAUCACCCAUGUUUCUCAUCUGC [Mod of Eli 3 - Jieux - Brourd's mod of Exclusion 4] (Eterna round: R97, puzzle: Brourd's mod of Exclusion 4)	85.6
GCACGGAUUGUAGGAUAUCUGUGCGAUUAGCUCAGAGAAGGACACAUGAGGAUCACCCAUGUUACCUCAAUUAGCCUUCCGUGC [Eli exng1 - 030] (Eterna round: R96, puzzle: Exclusion NG 1)	21.7
CAUGUCUGAGGAUAUCGUUUUUUGUACAUGAGGAUCACCCAUGUCCUAUUUUUUAUAUUACGAGAAGGCAGUGGAU [JR_E5_Sub091] (Eterna round: R96, puzzle: Exclusion 5)	27.9
UGCGGUUGAGGAUAUACGUAGAAGUAGAUUCAUGUAAAACUACAUGAGGAUCACCCAUGUAGAAGGCAAUCGCU [Mat - Exclusion 2 - JL Mod - D40] (Eterna round: R97, puzzle: Exclusion 2)	193
CAUGAUUGACGAGGAUAUUGUACUACAUCACGACGAGAAGGCGUCUGUCACAUGAGGAUCACCCAUGUGAGACUGGUGAAUGAG [Ex NG1 #80] (Eterna round: R96, puzzle: Exclusion NG 1)	31.6
GUUGUUCGAGGAUAUACAUGAGGAUCACCCAUGUGUGUUGUGGGCGACGUUCGUUUAUGUAGAAGGCGGGCGGC [-27.2, -23.9 kcal, 19% A] (Eterna round: R97, puzzle: Exclusion 3)	78.2
CGCCUCAGAGGAUAUACUACGGUUUCCUCAUGAUGCGGCCAACAUGAGGAUCACCCAUGUAGAAGGCUGAGAAA [EX2 A.5] (Eterna round: R97, puzzle: Exclusion 2)	17.3

**Query** Endpoint output: apparent KD of MS2 coat protein of CCCUCACAUGAGGAUCACCCAUGUCAGGAUAUAGUGCGAUUGUCGAUAUGAAAUUGCAUUAGAAGGGAUUAGGC [Eternabot (L1) Solution 67] (Eterna round: R97, puzzle: Exclusion 1) . Value?
**Result** 24.8

**Query** Endpoint output: apparent KD of MS2 coat protein of AGUAUGUCAGGAUAUCUCGGGUAGCCCACAAGGACUACCGAAGAGAAGGGACAUGAGGAUCACCCAUGUACCAU [EX4 B.24] (Eterna round: R97, puzzle: Exclusion 4) . Value?
**Result** 19.9
